experimental_target: T1, Bicoid DBD-GST (Bcd) (UniProt P09081 83-170)
T1 sequence: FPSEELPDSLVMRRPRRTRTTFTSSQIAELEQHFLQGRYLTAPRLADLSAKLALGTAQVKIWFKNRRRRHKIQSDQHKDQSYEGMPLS
test_protocol: competitive fluorescence anisotropy (HiP-FA); mean of replicates 143.671, 148.3805; HiP-FA: 33 mM phosphate pH 7.0, 90 mM NaCl, 0.01% Tween 20, 0.1 mM DTT, 0.5% agarose; conventional titration and EMSA: 20 mM Tris-acetate pH 7.0, 50 nM (sic) NaCl, 0.01% Tween-20, 0.1 mM DTT
test_context: protein: recombinant; tags: N-terminal GST; blunt, G:G mismatch at position 6
measured_endpoint: Kd (nM)
Give the number; nM is assumed, so skip it.

Lookup: Which Kd is reported for this binder? Bcd competitor 16 (A6C) (dsDNA) DNA 1: TCGACGGTACTCCCTA DNA 2: TAGGGAGTACGGTCGA
Found: 146

Every entry's value here was drawn from paper PMC5913336.
